Tested on: NCI-H226
PROTOCOL NOTES: NCI tumour cell line growth inhibition, 48 h
Active and inactive are the calls of the source. No stated cut-off is given here; in the data, active = GI50 up to about 1.1 µM and inactive = higher.
MEASURE NAME: GI50

A selection of reference data follows.
Nc1c2c(nc3ccccc13)-c1ccccc1CCC2
13.6 µM (inactive)
COc1cc2[nH]c3c(c2cc1OC)CCN[C@@]31CC[C@@]2(CC3c4c(cc(OC)c(O)c42)CCN3C)C[C@@H]1OC (stereo not given in full)
46.5 µM (inactive)
Cn1ncc2c(NCc3ccccc3)ncnc21
> 100 µM (inactive)

(Q) What does the record list as GI50 for O=C1CN2C(Cl)(Cl)C2(c2ccccc2)c2cc(Cl)ccc2N1CC1CC1 (stereo not given) ?
(A) 21.3 µM (inactive)

(Q) Which GI50 is listed for O=C1/C(=C/c2ccc(Br)s2)NC(=S)N1c1ccccc1 ?
(A) > 100 µM (inactive)

(Q) What GI50 value was documented for this molecule, CSC(SC)=C(C#N)C(=O)Nc1ccc(Cl)cc1 ?
(A) 23.6 µM (inactive)

(Q) Which GI50 is reported for this molecule? c1ccc2c(c1)-c1nc3ccccc3cc1C2N1CCOCC1 (stereo not given)
(A) > 100 µM (inactive)

(Q) Field request: GI50 | item: Cc1cn(C2CC(N/C(=N/C#N)NCC3OC(n4cnc5c(N)ncnc54)CC3O)C(CO)O2)c(=O)[nH]c1=O (stereo not given)
(A) > 100 µM (inactive)

(Q) I would be grateful if you could share the reported GI50 for CC(=O)NC(CCCCNC(=O)N(C)N=O)C(=O)NCc1ccccc1 (stereo not given) .
(A) > 100 µM (inactive)

(Q) For COc1ccc(C(=O)/C=C/c2ccc(OCCCOc3ccc(/C=C/C(=O)c4ccc(OC)c(OC)c4)cc3)cc2)cc1OC , what is its reported GI50?
(A) > 100 µM (inactive)

(Q) Need GI50 of Cc1noc(NS(=O)(=O)c2ccc(NC(=O)c3ccc4nc5ccccc5c(Nc5ccc(S(=O)(=O)Nc6onc(C)c6C)cc5)c4c3)cc2)c1C , thanks.
(A) > 100 µM (inactive)
